Target Of Assay: Tankyrase 1 (TNKS1) (Homo sapiens, UniProt O95271)
Construct: His6-TNKS1, MW=28.2 KDa (construct: 1088-1327, 1266M)
Sequence (O95271 1088-1327): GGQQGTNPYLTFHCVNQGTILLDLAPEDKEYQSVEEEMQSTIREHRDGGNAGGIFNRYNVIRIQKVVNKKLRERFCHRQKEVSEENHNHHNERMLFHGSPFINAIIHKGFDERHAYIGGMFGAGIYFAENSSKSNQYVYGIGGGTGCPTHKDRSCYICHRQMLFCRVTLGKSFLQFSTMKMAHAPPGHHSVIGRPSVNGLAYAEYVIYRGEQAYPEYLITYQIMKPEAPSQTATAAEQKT
Assay Overview: μHTS-TNKS-IWR2 TR-FRET Binding Assay (Example 118), His6-TNKS1
Endpoint Name: IC50 (nM)

{"Compound": "Cn1ncc2c(=O)[nH]c(-c3ccc(C(F)(F)F)cn3)nc21", "Endpoint Name": "IC50", "Result": 286}
{"Compound": "Cn1ncc2c(=O)[nH]c(N3CCC(C#N)(c4ccc(F)cc4)CC3)nc21", "Endpoint Name": "IC50", "Result": 32}
{"Compound": "Cn1ncc2c(=O)[nH]c(N3CCN(c4c(Cl)cccc4Cl)CC3)nc21", "Endpoint Name": "IC50", "Result": 24}

P: Cn1ncc2c(=O)[nH]c(N3CCC(c4ccc(F)cc4)CC3)nc21
Q: Cn1ncc2c(=O)[nH]c(N3CCN(c4c(F)cccc4F)CC3)nc21
R: CCOC(=O)c1ccc(N2CCN(c3nc4c(cnn4C)c(=O)[nH]3)CC2)cc1
Prompt: Task field, ranking: reported IC50, descending order. Please list the labels according to the requested order.
Response: R, P, Q

1: CCC(=O)c1cc(F)c(N2CCN(c3nc4c(cnn4C)c(=O)[nH]3)CC2)c(F)c1
2: Cn1ncc2c(=O)[nH]c(N3CCN(c4cc(O)cc(F)c4F)CC3)nc21
Prompt: Two entries are listed, 1 and 2 . Which one carries the higher IC50? Answer by quoting the chosen item's label.
Response: 2

I: COCCOc1ccc(N2CCN(c3nc4c(cnn4C)c(=O)[nH]3)CC2)c(F)c1
II: Cn1ncc2c(=O)[nH]c(N3CCN(c4ncccc4C(F)(F)F)CC3)cc21
III: COCCOc1cc(F)cc(N2CCN(c3nc4c(cnn4C)c(=O)[nH]3)CC2)c1
IV: Cn1ncc2c(=O)[nH]c(N3CCN(c4ccc(F)cc4S(C)(=O)=O)CC3)cc21
Prompt: Task field, ranking: reported IC50, descending order. Please list the labels according to the requested order.
Response: III, IV, II, I

* * *

Quick list: IC50 per entry.
Test system: Wnt stimulated TCF transcriptional activity, HEK293-TS 112 TCF reporter cell line
Assay Overview: Tankyrase 1 Assay (Example 119): Wnt3A-stimulated TOPbrite TCF luciferase reporter
Type: cell-based
Condition Details: Compounds I-59 to I-144, procedure in Example 119 (0.5 ug/mL Wnt3A, 16 hours); read-out: TNKS1 (IC50)
Field format: number, assumed nM, no unit text.

{"Molecule": "Cn1cncc1C1CCN(c2nc3c(cnn3C)c(=O)[nH]2)C1 (centres unmarked)", "Measure Unit": "nM", "IC50": 90.3}
{"Molecule": "Cn1ncc2c(=O)[nH]c(N3CCN(c4c(F)cc(OC5CC[S+]([O-])CC5)cc4F)CC3)nc21 (centres unmarked)", "Measure Unit": "nM", "IC50": 18.7}
{"Molecule": "COCCOc1cc(F)c(N2CCN(c3nc4c(cnn4C4CCS(=O)(=O)CC4)c(=O)[nH]3)CC2)c(F)c1", "Measure Unit": "nM", "IC50": 268}
{"Molecule": "C[C@H](N)C(=O)OCCOc1cc(F)c(N2CCN(c3nc4c(cnn4C)c(=O)[nH]3)CC2)c(F)c1", "Measure Unit": "nM", "IC50": 3.7}
{"Molecule": "Cn1ncc2c(=O)[nH]c(N3CCC(c4ccccc4)CC3)nc21", "Measure Unit": "nM", "IC50": 46.2}

Prompt: Dear colleague, I am looking for the recorded IC50 of the following molecule: Cn1ncc2c(=O)[nH]c(N3CCN(c4c(F)cc(O)cc4F)CC3)nc21
Response: 8.8
